Tested on: A204
Assay: relative viability vs DMSO control (72 h) (fraction); higher = more viable cells
Conditions: 10 µM
Readout Label: relative viability

Worked set:
O=C(Nc1cnn2ccc(N3CCC[C@@H]3c3cc(F)ccc3F)nc12)N1CC[C@H](O)C1 : 1.09
Cc1ccc(NC(=O)c2ccc(CN3CCN(C)CC3)cc2)cc1Nc1nc(-c2cccnc2)cs1 : 0.0391
Cn1cnc2c(F)c(Nc3ccc(Br)cc3F)c(C(=O)NOCCO)cc21 : 0.713
COc1c(OCCCN2CCOCC2)ccc2c1N=C(NC(=O)c1cnc(N)nc1)N1CCN=C21 : 0.211
CCc1cc2c(cc1N1CCC(N3CCOCC3)CC1)C(C)(C)c1[nH]c3cc(C#N)ccc3c1C2=O : 1.14
CNC(=O)c1ccc(-c2cnc3ncc(Cc4ccc5ncccc5c4)n3n2)cc1F : 0.787

Consider the additional compound presented here.
[in] Entry COc1cc2/c(=N/c3ccc(Br)cc3F)nc[nH]c2cc1OCC1CCN(C)CC1 has what relative viability?
[out] 0.0148

Hey, just so you know, these numbers are from the supplement of paper PMC10883282.
